# Test system: Escherichia coli TOP10
# ASSAY PROTOCOL: shrunken log2 fold change of peptide-encoding DNA abundance (4.5 h post-induction vs induction); higher = less antimicrobial activity (less host growth inhibition)
# CONDITION LABEL: time post-induction: 4.5 h; library: site-saturation at positions 5, 18, 19, 20
In this section we review reported shrunken log2 fold change values for a set of sequences.
Output spec: single numeric token, no unit.

>>> observed_measurement("RRIRWRPPRLPRPRPRPTMAPRP")
0.449
>>> observed_measurement("RRIRYRPPRLPRPRPRPEQDPRP")
-0.0203
>>> observed_measurement("RRIRNRPPRLPRPRPRPDDTPRP")
0.0119
>>> observed_measurement("RRIRQRPPRLPRPRPRPYCHPRP")
-0.0183

Below: the item to evaluate.
shrunken log2 fold change reported for this sequence RRIRMRPPRLPRPRPRPTRTPRP : 2.22

----------
# Test system: Escherichia coli TOP10
# ASSAY PROTOCOL: shrunken log2 fold change of peptide-encoding DNA abundance (4.5 h post-induction vs induction); higher = less antimicrobial activity (less host growth inhibition)
# CONDITION LABEL: time post-induction: 4.5 h; library: site-saturation at positions 5, 18, 19, 20
Dear colleague, classification is by shrunken log2 fold change, with ranges listed here: group A = under -0.1, group B = from -0.1 up to 0.1, group C = 0.1 and over

>>> class("RRIRPRPPRLPRPRPRPCFFPRP")
"group B"

Band of RRIRRRPPRLPRPRPRPASVPRP ?
group C

----------
# Test system: Escherichia coli TOP10
# ASSAY PROTOCOL: shrunken log2 fold change of peptide-encoding DNA abundance (4.5 h post-induction vs induction); higher = less antimicrobial activity (less host growth inhibition)
# CONDITION LABEL: time post-induction: 4.5 h; library: site-saturation at positions 5, 18, 19, 20
Param threshold (-0.07) applies to shrunken log2 fold change; output Fulfilled when value >= threshold, Not fulfilled when value < threshold.

>>> class("RRIRERPPRLPRPRPRPRPNPRP")
"Fulfilled"

Answer whether shrunken log2 fold change of RRIRDRPPRLPRPRPRPCMKPRP is greater than or equal to -0.07.
Fulfilled

Answer whether shrunken log2 fold change of RRIRCRPPRLPRPRPRPCWNPRP is greater than or equal to -0.07.
Not fulfilled

Answer whether shrunken log2 fold change of RRIRERPPRLPRPRPRPMIDPRP is greater than or equal to -0.07.
Not fulfilled

Answer whether shrunken log2 fold change of RRIRLRPPRLPRPRPRPCERPRP is greater than or equal to -0.07.
Fulfilled

Answer whether shrunken log2 fold change of RRIRVRPPRLPRPRPRPQICPRP is greater than or equal to -0.07.
Not fulfilled

----------
In this section we review reported shrunken log2 fold change values for a set of sequences.
# Test system: Escherichia coli TOP10;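 also: peptides expressed intracellularly from a pBAD plasmid library in pooled LB shake-flask culture, induced with 0.3% L-arabinose, DNA abundance read by NGS, three biological replicates, DESeq2 with apeglm shrinkage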
# ASSAY PROTOCOL: shrunken log2 fold change of peptide-encoding DNA abundance (4.5 h post-induction vs induction); higher = less antimicrobial activity (less host growth inhibition)
# CONDITION LABEL: time post-induction: 4.5 h; library: site-saturation at positions 5, 18, 19, 20

Some solved cases for reference:
>>> observed_measurement("RRIRFRPPRLPRPRPRPTDWPRP")
0.335
>>> observed_measurement("RRIRDRPPRLPRPRPRPISPPRP")
-0.036

Below: the item to evaluate.
shrunken log2 fold change reported for this sequence RRIRQRPPRLPRPRPRPHFNPRP : -0.324
